Attribution: the supplement of paper PMC10567573

Reported protein stability index values for a set of variants
B1: TFE3 (parent)
chain: ELPNIKREISETEAKALLKERQKK

Variants of: B1
experiment: protein stability index of a GFP-peptide fusion (GPS, HEK-293T) (PSI 1-6); higher = more stable;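 note: lentivirally expressed fusions sorted by FACS into six bins by GFP to DsRed ratio, PSI derived from sequencing read proportions per bin multiplied by bin number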
conditions used: c terminus: a fixed tail appended
measure: protein stability index

{"columns": ["residue codes", "measure", "quantitative readout"],
 "data": [
  ["EYPNIKREISETEAKALLKERQKK [L2Y]", "protein stability index", 4.18],
  ["ELPNIKREISETEAKALLAERQKK [K19A]", "protein stability index", 2.7],
  ["ELPNIKREISETEAKALFKERQKK [L18F]", "protein stability index", 2.28],
  ["ELDNIKREISETEAKALLKERQKK [P3D]", "protein stability index", 2.89],
  ["ELPNIKREISETEDKALLKERQKK [A14D]", "protein stability index", 2.17],
  ["ELPNIKREISETEAKALLKESQKK [R21S]", "protein stability index", 1.81],
  ["ELPNIKREISETEAKKLLKERQKK [A16K]", "protein stability index", 3.91],
  ["ELPNIKREISETEAKALLKERKKK [Q22K]", "protein stability index", 2.35],
  ["ELPNIKREISETEAKALLKERQRK [K23R]", "protein stability index", 2.78],
  ["ELPNIKREISEKEAKALLKERQKK [T12K]", "protein stability index", 3.85],
  ["ELPNIKRSISETEAKALLKERQKK [E8S]", "protein stability index", 3.69],
  ["ELPNIKREISETEAKALLKERQTK [K23T]", "protein stability index", 2.86],
  ["ELPNIKREISETEAKAPLKERQKK [L17P]", "protein stability index", 3.56],
  ["ELPNIKEEISETEAKALLKERQKK [R7E]", "protein stability index", 2.46],
  ["ELPNIQREISETEAKALLKERQKK [K6Q]", "protein stability index", 2.45],
  ["ELPNIKREISETEAKALLVERQKK [K19V]", "protein stability index", 2.8],
  ["ELPNIKREISETEAKALLKERQKP [K24P]", "protein stability index", 2.17],
  ["ELPNIPREISETEAKALLKERQKK [K6P]", "protein stability index", 3.89],
  ["ELPNIKREISETEALALLKERQKK [K15L]", "protein stability index", 2.08],
  ["ELPNIKREISETEAKARLKERQKK [L17R]", "protein stability index", 3.27],
  ["ELPNIEREISETEAKALLKERQKK [K6E]", "protein stability index", 4.11],
  ["ELPNIKVEISETEAKALLKERQKK [R7V]", "protein stability index", 2.46],
  ["ELPNIKREISETEAKALSKERQKK [L18S]", "protein stability index", 2.77],
  ["ELPNIKREISETEAKALLKERQYK [K23Y]", "protein stability index", 2.1],
  ["ELPLIKREISETEAKALLKERQKK [N4L]", "protein stability index", 3.34],
  ["ELPNIKREISETEAKALLKEGQKK [R21G]", "protein stability index", 2.28],
  ["ELPNIKREISETEAKALLKERHKK [Q22H]", "protein stability index", 2.73]
]}
